Ref: patent EP4707304A1

Kindly state EC50 for each of the entries shown.
Target: T1, VLP-hCLDN6 (human, UniProt P56747 1-220)
T1 construct: also called VLP-CLDN6; AT-003-ag1
T1 sequence: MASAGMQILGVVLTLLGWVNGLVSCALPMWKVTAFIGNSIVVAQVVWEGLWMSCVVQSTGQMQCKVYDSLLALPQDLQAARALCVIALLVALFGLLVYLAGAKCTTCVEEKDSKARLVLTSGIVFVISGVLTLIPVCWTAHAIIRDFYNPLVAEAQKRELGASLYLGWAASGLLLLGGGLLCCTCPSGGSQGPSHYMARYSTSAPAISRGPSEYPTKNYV
Experiment: ELISA on coated VLP-hCLDN6
Numbers only, in nM.

Some entries whose results are on file:
• humanized antibody hAb-47 (antibody, V domains shown, also called VH6VL4) VH: EVKLVESGGGLVKPGGSLRLSCAASGFTFNDYTMSWVRQAPGKRLEWVVTISSGGGRTYYPDSVKGRFTISRDNAKNSLYLQMNSLRAEDTAVYYCIRGDYRYDAFAYWGQGTLVTVSS VL: DIQMTQSPSSLSASVGDRVTITCRASENIDSYLAWYQQKPGKSPQLLVYASTLLVDGVPSRFSGSRSGTQFSLTISSLQPEDVARYYCQHYYSIPYTFGSGTKLEIK = 0.11
• humanized antibody hAb-49 (antibody, V domains shown, also called VH8VL4) VH: EVQLVESGGGLVKPGGSLRLSCAASGFTFNDYTMSWVRQAPGKRLEWVVTISSGGGRTYYPDSVKGRFTISRDNAKNSLYLQMNSLRAEDTAVYYCIRGDYRYDAFAYWGQGTLVTVSS VL: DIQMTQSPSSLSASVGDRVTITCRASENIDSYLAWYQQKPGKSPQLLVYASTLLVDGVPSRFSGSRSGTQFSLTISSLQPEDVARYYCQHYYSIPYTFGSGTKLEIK = 0.07
• murine/human chimeric antibody cAb-1 (antibody, V domains shown, also called VH0/VL0) VH: EVKLVESGGGLVKPGGSLKLSCAASGFTFNSYTMSWVRQTPAKRLEWVVTISSGGGRTYYPDSVKGRFTISRDNARNTLYLQMSSLRSEDTAMYYCIRGDYRYDGFAYWGQGTLVTVST VL: DIQMTQSPASLSASVGETVTITCRASENIDSYLAWYQQKQGKSPQLLVYASTLLVDGVPSRFSGSRSGTQFSLKINSLQSEDVARYYCQHYYSIPYTFGSGTKLEIK = 0.59
• humanized antibody hAb-26 (antibody, V domains shown, also called VH2VL4 with HC S31Y) VH: EVKLVESGGGLVKPGGSLRLSCAASGFTFNYYTMSWVRQTPAKRLEWVVTISSGGGRTYYPDSVKGRFTISRDNAKNTLYLQMSSLRAEDTAVYYCIRGDYRYDGFAYWGQGTLVTVSS VL: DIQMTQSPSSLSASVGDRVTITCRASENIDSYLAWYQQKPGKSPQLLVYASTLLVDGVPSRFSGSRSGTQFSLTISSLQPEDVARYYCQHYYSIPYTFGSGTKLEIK = 0.1

Reported EC50 of humanized antibody hAb-48 (antibody, V domains shown, also called VH7VL4) VH: EVQLVESGGGLVKPGGSLRLSCAASGFTFNDYTMSWVRQAPGKRLEWVVTISSGGGRTYYPDSVKGRFTISRDNAKNTLYLQMSSLRAEDTAVYYCIRGDYRYDAFAYWGQGTLVTVSS VL: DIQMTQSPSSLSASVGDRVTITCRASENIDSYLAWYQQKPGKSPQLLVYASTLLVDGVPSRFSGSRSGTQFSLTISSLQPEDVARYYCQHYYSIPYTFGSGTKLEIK : 0.13
